Reference for the values: patent US20090304692A1

- study_target: PI3K-α (Homo sapiens, UniProt P42336)
- Sequence (P42336 whole entry, species assumed): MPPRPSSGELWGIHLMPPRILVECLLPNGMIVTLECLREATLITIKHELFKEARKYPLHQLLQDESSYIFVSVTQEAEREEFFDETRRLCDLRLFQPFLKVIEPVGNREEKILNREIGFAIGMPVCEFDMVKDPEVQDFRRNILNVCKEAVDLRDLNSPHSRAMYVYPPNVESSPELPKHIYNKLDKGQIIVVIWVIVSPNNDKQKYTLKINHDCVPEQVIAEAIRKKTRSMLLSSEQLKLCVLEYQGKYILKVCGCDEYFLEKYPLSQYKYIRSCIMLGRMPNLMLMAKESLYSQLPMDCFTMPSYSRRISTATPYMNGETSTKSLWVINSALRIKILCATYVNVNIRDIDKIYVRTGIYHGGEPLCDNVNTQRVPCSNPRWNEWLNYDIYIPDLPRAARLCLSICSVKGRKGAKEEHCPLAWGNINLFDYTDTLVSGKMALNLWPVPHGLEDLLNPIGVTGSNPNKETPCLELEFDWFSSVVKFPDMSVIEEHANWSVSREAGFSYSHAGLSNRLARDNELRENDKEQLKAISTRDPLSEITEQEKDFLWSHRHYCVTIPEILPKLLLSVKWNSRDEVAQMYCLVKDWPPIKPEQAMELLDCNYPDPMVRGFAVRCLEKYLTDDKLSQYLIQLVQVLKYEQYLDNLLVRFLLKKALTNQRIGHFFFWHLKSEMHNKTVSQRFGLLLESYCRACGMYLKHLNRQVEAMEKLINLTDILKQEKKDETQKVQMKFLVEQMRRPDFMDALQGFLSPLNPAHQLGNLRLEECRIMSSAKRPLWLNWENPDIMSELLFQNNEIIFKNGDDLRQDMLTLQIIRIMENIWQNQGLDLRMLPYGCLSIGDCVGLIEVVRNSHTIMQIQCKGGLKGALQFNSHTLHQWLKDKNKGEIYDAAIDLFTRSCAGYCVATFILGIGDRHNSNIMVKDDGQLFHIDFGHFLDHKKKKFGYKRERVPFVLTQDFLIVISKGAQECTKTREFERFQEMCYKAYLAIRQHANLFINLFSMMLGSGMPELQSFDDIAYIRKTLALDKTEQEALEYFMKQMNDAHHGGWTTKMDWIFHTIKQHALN
- Sequence (P27986 whole entry partner, species assumed): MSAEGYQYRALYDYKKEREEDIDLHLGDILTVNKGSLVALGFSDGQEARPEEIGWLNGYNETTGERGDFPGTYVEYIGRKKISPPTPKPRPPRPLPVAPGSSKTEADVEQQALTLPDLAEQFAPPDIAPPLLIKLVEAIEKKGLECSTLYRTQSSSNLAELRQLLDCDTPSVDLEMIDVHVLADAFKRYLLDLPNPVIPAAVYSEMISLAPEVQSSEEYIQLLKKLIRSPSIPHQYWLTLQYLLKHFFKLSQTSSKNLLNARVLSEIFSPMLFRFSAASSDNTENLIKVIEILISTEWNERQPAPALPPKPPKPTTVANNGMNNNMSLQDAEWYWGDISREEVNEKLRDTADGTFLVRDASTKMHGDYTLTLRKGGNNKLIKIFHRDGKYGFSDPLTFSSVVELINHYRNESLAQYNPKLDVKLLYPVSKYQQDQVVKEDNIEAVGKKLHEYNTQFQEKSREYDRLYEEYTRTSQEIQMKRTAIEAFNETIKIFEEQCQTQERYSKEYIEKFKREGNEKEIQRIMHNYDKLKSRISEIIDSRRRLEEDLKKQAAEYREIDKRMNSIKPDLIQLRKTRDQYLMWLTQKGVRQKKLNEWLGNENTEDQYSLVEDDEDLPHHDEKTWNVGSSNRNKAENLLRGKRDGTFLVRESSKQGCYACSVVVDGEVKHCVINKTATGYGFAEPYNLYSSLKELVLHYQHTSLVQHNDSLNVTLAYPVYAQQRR
- method_description: PI3K-alpha fluorescence polarization assay
- experimental_context: read-out: IC50 PI3Kα
pIC50: −log10 of the molar value. Structures can show the parent of a compound that is named as a salt.
Classes are defined on pIC50 with ranges band 1: < 6; band 2: ≥ 6 and < 8; band 3: ≥ 8

Example cases with answers are listed next.
> print(dat)
                                   molecule  class.assignment
1  O=C(Nc1ccc(C(=O)N2CCCC2)cc1)Nc1ccc(-c2nc(C3CCOCC3)nc(N3C4CCC3COC4)n2)cc1            band 2
2  CC(C)Nc1nc(-c2ccc(NC(=O)NC3CC3)cc2)nc(N2CC3CCC(C2)O3)n1            band 1
3  COc1nc(-c2ccc(NC(=O)Nc3ccc(C(=O)NCCN(C)C)cc3)cc2)nc(N2CCOCC2)n1            band 3

Input line: Dear colleague, I would appreciate it if you could identify the bin for `CCN1CCN(c2ccc(NC(=O)Nc3ccc(-c4nc(N5CCOC[C@H]5C)nc(N5CCOC[C@H]5C)n4)cc3)cc2)CC1` and reply at your convenience.
Output line: band 2

Input line: Lab note: which band did `CC(C)c1nc(-c2ccc(NC(=O)Nc3ccc(-c4cnc(N(C)C)nc4)cc3)cc2)nc(N2CCOCC2)n1` land in?
Output line: band 1

Input line: Quick check: band for `O=C(Nc1ccncc1)Nc1ccc(-c2nc(N3CCCC3)nc(N3CCOCC3)n2)cc1`
Output line: band 2

Input line: Field: class (pIC50) — entry: `CN(C)C1CCN(C(=O)Nc2ccc(NC(=O)Nc3ccc(-c4nc(N5CCOCC5)nc(N5CCOCC5)n4)cc3)cc2)CC1`
Output line: band 3

Input line: Classify this molecule: `O=C(Nc1ccc(-c2nc(N3CCOCC3)nc(N3C4CCC3COC4)n2)cc1)Nc1ccnnc1`
Output line: band 2

Input line: Which bin, given its pIC50, does CN1CCN(C(=O)c2ccc(NC(=O)Nc3ccc(-c4nc(N5CCOCC5)nc(N5CCOCC5)n4)cc3)cc2)CC1 [Example 69, hydrochloride] occupy?
Output line: band 3

Input line: Dear colleague, I would appreciate it if you could identify the bin for `NC(=O)c1ccc(NC(=O)Nc2ccc(-c3nc(C4CCOCC4)nc(N4C5CCC4COC5)n3)cc2)cc1` and reply at your convenience.
Output line: band 2

* * *

- study_target: PI3K-γ (Homo sapiens)
- Sequence (P48736 whole entry, species assumed): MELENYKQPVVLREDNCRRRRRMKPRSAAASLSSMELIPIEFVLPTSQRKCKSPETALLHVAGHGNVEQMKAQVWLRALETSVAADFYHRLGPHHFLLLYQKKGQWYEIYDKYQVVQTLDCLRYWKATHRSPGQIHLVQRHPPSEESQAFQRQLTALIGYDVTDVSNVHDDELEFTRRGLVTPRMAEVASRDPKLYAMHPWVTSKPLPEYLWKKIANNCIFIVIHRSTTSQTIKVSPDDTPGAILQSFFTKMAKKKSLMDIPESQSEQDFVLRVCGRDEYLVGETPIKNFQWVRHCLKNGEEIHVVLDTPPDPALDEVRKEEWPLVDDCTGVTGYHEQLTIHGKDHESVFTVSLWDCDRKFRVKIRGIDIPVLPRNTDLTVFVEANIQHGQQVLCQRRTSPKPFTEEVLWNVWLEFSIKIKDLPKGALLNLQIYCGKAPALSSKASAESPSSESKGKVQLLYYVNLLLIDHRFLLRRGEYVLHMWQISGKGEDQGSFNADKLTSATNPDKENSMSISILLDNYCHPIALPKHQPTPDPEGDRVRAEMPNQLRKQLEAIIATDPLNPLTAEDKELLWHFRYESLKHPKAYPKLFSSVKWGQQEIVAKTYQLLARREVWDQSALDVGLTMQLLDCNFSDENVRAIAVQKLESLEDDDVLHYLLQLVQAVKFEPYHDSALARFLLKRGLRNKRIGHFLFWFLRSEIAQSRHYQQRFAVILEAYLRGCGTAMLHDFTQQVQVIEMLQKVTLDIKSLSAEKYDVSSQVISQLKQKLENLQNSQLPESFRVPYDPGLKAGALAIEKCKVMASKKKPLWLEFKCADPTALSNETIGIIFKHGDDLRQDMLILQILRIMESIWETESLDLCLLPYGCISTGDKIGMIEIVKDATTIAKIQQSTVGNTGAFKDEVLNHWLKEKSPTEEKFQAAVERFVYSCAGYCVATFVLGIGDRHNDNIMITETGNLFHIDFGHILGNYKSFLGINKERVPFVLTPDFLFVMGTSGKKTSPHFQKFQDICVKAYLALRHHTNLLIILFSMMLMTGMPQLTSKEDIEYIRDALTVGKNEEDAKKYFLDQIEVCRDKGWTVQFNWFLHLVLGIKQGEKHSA
- method_description: PI3K-gamma fluorescence polarization assay
- experimental_context: read-out: IC50 PI3Kγ
Here, each record is paired with measured log10 of IC50 data.
All values: base-10 log of IC50 in nM.

Input line: What value of log10 of IC50 has been reported for the following molecule? `CC(C)(C)OC(=O)N1CC(CNc2nc(-c3ccc(NC(=O)Nc4ccncc4)cc3)nc(N3CCOCC3)n2)C1`
Output line: 2.37

Input line: Give its log10 of IC50 value. Item: `C[C@@H]1COCCN1c1nc(-c2ccc(NC(=O)Nc3ccncc3)cc2)nc(N2C[C@@H]3C[C@H]2CO3)n1`
Output line: 3.75

Input line: Can you share its log10 of IC50? I mean this molecule: `O=C(Nc1ccncc1)Nc1ccc(-c2nc(N3CCC(NCCO)CC3)nc(N3CC4CCC(C3)O4)n2)cc1`
Output line: 3.80

Input line: Endpoint output: log10 of IC50 of `O=C(Nc1ccc(-c2nc(N3CCOCC3)nc(N3CCOCC3)n2)cc1)Nc1ccnnc1` . Value?
Output line: 1.81

Input line: Would you kindly share the measured log10 of IC50 for O=C(Nc1ccncc1)Nc1ccc(-c2nc(N3CCOCC3)nc(N3C4COCC3C(OCc3ccccc3)C4)n2)cc1 (stereo not shown) ?
Output line: 2.55

Input line: // query log10 of IC50 value for entry O=C(Nc1ccc(-c2nc(N3CCOCC3)nc(N3CC4CCC3CO4)n2)cc1)Nc1cc[nH]n1 (stereo not shown)
Output line: 3.34

Input line: Quick one: log10 of IC50 for `CN1CCN(c2ccc(Nc3nc(-c4ccc(NC(=O)Nc5ccccc5)cc4)nc(N4CC5CCC(C4)O5)n3)cc2)CC1` ?
Output line: 3.16

Input line: What log10 of IC50 value was documented for this molecule, `CN1CCN(c2ccc(NC(=O)Nc3ccc(-c4nc(N5C[C@H]6C[C@@H]5CO6)nc(N5C[C@H]6C[C@@H]5CO6)n4)cc3)cc2)CC1` ?
Output line: 4.00

Input line: Which log10 of IC50 reading was recorded for the molecule `O=C(Nc1ccc(-c2nc(OC3CCOCC3)nc(N3CCOCC3)n2)cc1)Nc1cccnc1` ?
Output line: 1.51

Input line: Sample `C[C@@H]1COCCN1c1nc(-c2ccc(NC(=O)Nc3cccnc3)cc2)nc(C2CCOCC2)n1` — what was its log10 of IC50?
Output line: 3.64

Input line: Fill blank: measured log10 of IC50 of the molecule `O=C(Nc1ccccc1)Nc1ccc(-c2nc(OC3CCOCC3)nc(N3CCOCC3)n2)cc1` is ____.
Output line: 1.56

Input line: Which value of log10 of IC50 has been reported for `CCc1nc(-c2ccc(NC(=O)Nc3ccc(C(=O)N4CCC(c5ccccc5)CC4)cc3)cc2)nc(N2CCOCC2)n1` in the records?
Output line: 1.40

Input line: Endpoint output: log10 of IC50 of `O=C(Nc1ccc(C(=O)N2CCC(N3CCCC3)CC2)cc1)Nc1ccc(-c2nc(N3CCOCC3)nc(N3C[C@@H]4C[C@H]3CO4)n2)cc1` . Value?
Output line: 1.49

Input line: Which value of log10 of IC50 has been reported for `CN(C)CCOc1ccc(NC(=O)Nc2ccc(-c3nc(N4CCOCC4)nc(N4C5CCC4COC5)n3)cc2)cc1` in the records?
Output line: 1.97

Input line: Request the reported log10 of IC50 associated with `CC(C)(C)OC(=O)N1CC2CN(c3nc(-c4ccc(NC(=O)Nc5ccncc5)cc4)nc(N4CCOCC4)n3)CC(C1)O2`
Output line: 3.70

Input line: Which measured log10 of IC50 value corresponds to `Cc1ccc(-c2nc(-c3ccc(NC(=O)Nc4ccncc4)cc3)nc(N3CCOCC3)n2)cc1` ?
Output line: 2.85

* * *

- study_target: PI3K-α (Homo sapiens)
- method_description: PI3K-alpha fluorescence polarization assay
- experimental_context: read-out: IC50 PI3Kα
quantity_name: IC50 (µM)
Output spec: scalar in µM, unitless text.

> print(dat)
                                   compound  quantity.name  reported.value
1  CNC(=O)Nc1ccc(-c2nc(NC(C)C)nc(N3CC4CCC(C3)O4)n2)cc1           IC50           0.902
2  Cc1ccc(-c2nc(-c3ccc(NC(=O)Nc4ccc(N5CCN(C)CC5)cc4)cc3)nc(N3CCOCC3)n2)cc1           IC50           0.097
3  CN(C)CCOc1ccc(NC(=O)Nc2ccc(-c3nc(NS(=O)(=O)c4ccccc4)nc(N4CCOCC4)n3)cc2)cc1           IC50           0.346

Could you now consider this next compound?
Input line: For the compound shown here, CC(O)c1ccc(NC(=O)Nc2ccc(-c3nc(N4CCOCC4)nc(N4CCOC[C@@H]4C)n3)cc2)cc1 (stereo partly shown) , give the reported IC50.
Output line: 0.012

* * *

- System: human prostate PC3-mm2 tumor cell line
- method_description: In vitro cell culture growth assay (MTS), PC3-mm2
- Type: cell-based
- experimental_context: Homo sapiens, PC3MM2, 72 h, MTS cell growth assay, three days after drug treatment; read-out: IC50 PC3-mm2
Entries and their measured pIC50 follow.
Please note pIC50 is a logarithmic value: minus log10 of concentration in mol/L. Answer with that number alone.

> print(dat)
                                   compound  quantity.name  reported.value
1  O=C(Nc1ccncc1)Nc1ccc(-c2nc(CCCO)nc(N3CCOCC3)n2)cc1          pIC50            6.61
2  CCc1nc(-c2ccc(NC(=O)Nc3ccc(C(=O)N4CCN(C)CC4)cc3)cc2)nc(N2CCOCC2)n1          pIC50            7.17
3  O=C(Nc1ccc(-c2nc(N3CCOCC3)nc(N3C4CCC3COC4)n2)cc1)Nc1cccnc1          pIC50            7.01
4  CCc1nc(-c2ccc(NC(=O)Nc3ccc(C(=O)NCCN(C)C)cc3)cc2)nc(N2CCOCC2)n1          pIC50            7.16
5  CN1C2CCC1CC(Oc1nc(-c3ccc(NC(=O)Nc4ccncc4)cc3)nc(N3CCOCC3)n1)C2 (stereo not drawn)          pIC50            6.07

Input line: Any idea what pIC50 was measured for `Cc1nc(-c2ccc(NC(=O)Nc3ccc(C(=O)N4CCN(C)CC4)cc3)cc2)nc(N2CCOCC2)n1` ?
Output line: 6.60

Input line: Recorded pIC50 of `O=C(Nc1ccncc1)Nc1ccc(-c2nc(C3=CCOCC3)nc(N3CCOCC3)n2)cc1` , please.
Output line: 7.25

Input line: Which pIC50 value is on record for `O=C(Nc1ccc(CO)cc1)Nc1ccc(-c2nc(N3CCOCC3)nc(N3C4CCC3COC4)n2)cc1` ?
Output line: 7.55
